Form field: pIC50 (one value per entry).
- target: P70S6K (T412E mutant, Millipore) (Homo sapiens, UniProt P23443, T412E)
- Construct: purchased Millipore
- Sequence (P23443 whole entry T412E): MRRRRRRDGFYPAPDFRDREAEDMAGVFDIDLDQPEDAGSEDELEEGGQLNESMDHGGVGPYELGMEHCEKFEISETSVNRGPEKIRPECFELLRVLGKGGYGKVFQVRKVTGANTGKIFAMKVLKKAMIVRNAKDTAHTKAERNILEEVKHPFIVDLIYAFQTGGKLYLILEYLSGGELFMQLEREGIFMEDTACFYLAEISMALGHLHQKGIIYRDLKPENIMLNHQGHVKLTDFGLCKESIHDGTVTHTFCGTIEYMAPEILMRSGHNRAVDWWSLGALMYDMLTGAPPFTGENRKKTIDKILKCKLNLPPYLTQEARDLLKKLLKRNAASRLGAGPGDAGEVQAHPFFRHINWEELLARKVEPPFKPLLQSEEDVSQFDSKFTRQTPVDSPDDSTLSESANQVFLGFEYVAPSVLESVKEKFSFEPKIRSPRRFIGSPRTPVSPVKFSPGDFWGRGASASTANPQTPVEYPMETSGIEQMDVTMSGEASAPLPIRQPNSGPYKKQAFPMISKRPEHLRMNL
- procedure-details: p70S6K enzyme assay
- Type: biochemical
- assay-setup: class symbol; 3 nM P70S6K, 24 μM ATP; read-out: IC50 (p70S6K)
pIC50: −log10 of the molar value.

| molecule | quantity-kind | endpoint-value |
| --- | --- | --- |
| O=C(NCc1ccccn1)c1sccc1Nc1ccnc2[nH]ccc12 | pIC50 | 6.00 to 7.00 |
| Cc1ccc(CNCCNC(=O)c2sccc2Nc2ccnc3[nH]ccc23)cc1 | pIC50 | > 7.00 |
| NCC(NC(=O)c1ccsc1Nc1ccnc2[nH]ccc12)c1cccc(F)c1 (stereo not drawn) | pIC50 | > 7.00 |
| O=C(Nc1cccc(CNC(=O)c2sccc2Nc2ccnc3[nH]ccc23)c1)c1ccnc(N2CCCC2)c1 | pIC50 | > 7.00 |
| COc1ccccc1C(CN(C)C)NC(=O)c1sccc1Nc1ccnc2[nH]ccc12 (stereo not drawn) | pIC50 | 6.00 to 7.00 |

Req: Provide only the value of recorded pIC50 for COc1ccccc1C(CN)NC(=O)c1sccc1Nc1ccnc2[nH]ccc12 (stereo not drawn)
Resp: > 7.00

Req: Provide measured pIC50 value, entry: "O=C(N[C@H](CO)Cc1ccccc1)c1ccsc1Nc1ccnc2[nH]ccc12"
Resp: > 7.00

Req: Assign pIC50 to the following record: NCC(NC(=O)c1ccsc1Nc1ccnc2[nH]ccc12)c1ccc(Cl)c(Cl)c1 (stereo not drawn)
Resp: > 7.00

Req: Output measured pIC50 for this item: O=C(NCC(O)c1ccccc1)c1sccc1Nc1ccnc2[nH]ccc12 (stereo not drawn)
Resp: > 7.00

Req: For the molecule "Cc1cc(Nc2ncnc3[nH]ccc23)c(C(=O)NCc2cccc(Cl)c2)s1" , give its measured pIC50 value.
Resp: 6.00 to 7.00

Req: Using known records, supply pIC50 for "O=C(NCCNCc1ccccc1)c1ccsc1Nc1ccnc2[nH]ccc12"
Resp: > 7.00

Req: Please indicate pIC50 recorded for "O=C(NCCc1ccncc1)c1sccc1Nc1ccnc2[nH]ccc12"
Resp: 6.00 to 7.00

Req: Please supply the value of reported pIC50 for the item "O=C(NCCc1cccc(Cl)c1)c1sccc1Nc1ncnc2[nH]ccc12"
Resp: > 7.00

Req: Answer with the recorded pIC50 for the molecule listed here: COc1cccc(C(CN)NC(=O)c2ccsc2Nc2ccnc3[nH]ccc23)c1 (stereo not drawn)
Resp: > 7.00

Req: Tell me its pIC50 given "O=C(NCCNCc1cccc(OC(F)(F)F)c1)c1sccc1Nc1ccnc2[nH]ccc12" as the entry.
Resp: > 7.00

Req: Please give measured pIC50 of the following entry: "O=C(NCCOc1ccccc1)c1sccc1Nc1ccnc2[nH]ccc12"
Resp: 6.00 to 7.00

Req: Write down pIC50 measured for item "Nc1cccc(CNC(=O)c2ccsc2Nc2ccnc3[nH]ccc23)c1"
Resp: > 7.00

----------
Recorded pIC50 for the following compounds
- target: P70S6K (T412E mutant, Millipore) (Homo sapiens, UniProt P23443, T412E)
- Construct: purchased Millipore
- procedure-details: p70S6K enzyme assay
- Assay type: biochemical
- assay-setup: Table 1; 3 nM P70S6K, 24 μM ATP, 90 min at 25° C.; read-out: p70S6K inhibition (IC50)
pIC50: −log10 of the molar value.

Consider the following illustrative entries.
| compound | pIC50 |
| --- | --- |
| O=C(NCCNCc1ccccc1)c1sccc1Nc1ncnc2[nH]ccc12 [Example 148] | > 7.00 |
| CC(C)(C)OC(=O)N(CCNC(=O)c1occc1Nc1ncnc2[nH]ccc12)Cc1ccccc1 [Example 157] | 5.00 to 6.00 |
| O=C(NCCc1cccc(Cl)c1)c1sccc1Nc1ncnc2[nH]ccc12 [Example 144] | > 7.00 |
| CC(C)NC(=O)c1ccccc1Nc1ccnc2[nH]ccc12 [Example 155] | 6.00 to 7.00 |
| CC(C)(C)OC(=O)N1CCC(NC(=O)c2sccc2Nc2ccnc3[nH]ccc23)C1 (stereo not drawn) [Example 156] | 5.00 to 6.00 |

Req: Name the recorded pIC50 of the item Cc1cc(Nc2ncnc3[nH]ccc23)c(C(=O)NCc2cccc(Cl)c2)s1 [Example 152] in your answer.
Resp: > 7.00

----------
IC50 values by entry
- target: P70S6K (T412E mutant, Millipore) (Homo sapiens, UniProt P23443, T412E)
- Construct: purchased Millipore
- procedure-details: p70S6K enzyme assay
- Format: biochemical
- assay-setup: numeric bound printed under the example; read-out: IC50 (p70S6K)

| smiles-structure | IC50 |
| --- | --- |
| O=C(NCCNCc1ccccc1)c1sc2ccccc2c1Nc1ccnc2[nH]ccc12 | > 10 µM |

# context switch: different molecule, same IC50
Req: State IC50 (P70S6K (T412E mutant, Millipore) (Homo sapiens, UniProt P23443, T412E)) of "O=C(N[C@H](CO)c1ccccc1)c1sc2ccccc2c1Nc1ccnc2[nH]ccc12" .
Resp: > 10 µM

----------
- target: P70S6K (T412E mutant, Millipore) (Homo sapiens, UniProt P23443, T412E)
- Construct: purchased Millipore
- procedure-details: p70S6K enzyme assay
- Format: biochemical
- assay-setup: class symbol; 3 nM P70S6K, 24 μM ATP; read-out: IC50 (p70S6K)
Listing of recorded IC50 by entry.

Completed entries (count: 8):
| compound | quantity-kind | endpoint-value |
| --- | --- | --- |
| CC(=O)N(CCNC(=O)c1sccc1Nc1ccnc2[nH]ccc12)Cc1ccccc1 [Example 45] | IC50 | 100 to 1000 nM |
| O=C(NCCC1=CCCCC1)c1sccc1Nc1ccnc2[nH]ccc12 [Example 13] | IC50 | < 100 nM |
| O=C(NCCc1cccc(Cl)c1)c1sccc1Nc1ccnc2[nH]ccc12 [Example 20] | IC50 | < 100 nM |
| O=C(c1sccc1Nc1ccnc2[nH]ccc12)N1CCCC1 [Example 4] | IC50 | 100 to 1000 nM |
| CC(C)C[C@@H](CO)NC(=O)c1ccsc1Nc1ccnc2[nH]ccc12 [Example 117] | IC50 | < 100 nM |
| NC1CCN(C(=O)c2sccc2Nc2ccnc3[nH]ccc23)CC1 [Example 64] | IC50 | 1000 to 10000 nM |
| O=C(N[C@@H](CO)[C@@H](O)c1ccccc1)c1sccc1Nc1ccnc2[nH]ccc12 [Example 84] | IC50 | 1000 to 10000 nM |
| CC(C)(C)OC(=O)N1CCCC(NC(=O)c2sccc2Nc2ccnc3[nH]ccc23)C1 (stereo not drawn) [Example 91] | IC50 | 100 to 1000 nM |

Req: Give IC50 for the following compound: CCNc1cc(C(=O)Nc2cccc(CNC(=O)c3sccc3Nc3ccnc4[nH]ccc34)c2)ccn1 [Example 165]
Resp: < 100 nM

----------
- target: P70S6K (T412E mutant, Millipore) (Homo sapiens, UniProt P23443, T412E)
- Construct: purchased Millipore
- procedure-details: p70S6K enzyme assay
- Assay type: biochemical
- assay-setup: class symbol; 3 nM P70S6K, 24 μM ATP; read-out: IC50 (p70S6K)
quantity-kind: IC50

| compound | IC50 |
| --- | --- |
| NC[C@@H](NC(=O)c1sccc1Nc1ccnc2[nH]ccc12)c1cccc(F)c1 | < 100 nM |
| O=C(NCc1cccc(Cl)c1)c1sccc1Nc1ccnc2[nH]ccc12 | < 100 nM |
| Cc1cccc(CN(CCNC(=O)c2sccc2Nc2ccnc3[nH]ccc23)Cc2cccc(C)c2)c1 | 100 to 1000 nM |
| NC[C@@H](NC(=O)c1ccsc1Nc1ccnc2[nH]ccc12)c1ccccc1 | < 100 nM |
| O=C(NCCNCc1ccoc1)c1sccc1Nc1ccnc2[nH]ccc12 | < 100 nM |
| COc1cccc(CCNC(=O)c2sccc2Nc2ccnc3[nH]ccc23)c1 | < 100 nM |

Req: Please report IC50 with P70S6K (T412E mutant, Millipore) (Homo sapiens, UniProt P23443, T412E) for item "O=C(NCc1ccc(Cl)c(C(F)(F)F)c1)c1sccc1Nc1ccnc2[nH]ccc12" .
Resp: < 100 nM

Req: Please tell me the measured IC50 for "[N-]=[N+]=NC[C@@H](NC(=O)c1ccsc1Nc1ccnc2[nH]ccc12)c1ccccc1" ; system: P70S6K (T412E mutant, Millipore) (Homo sapiens, UniProt P23443, T412E).
Resp: < 100 nM

Req: // fetch IC50; item: COc1ccc(C(CN)NC(=O)c2sccc2Nc2ccnc3[nH]ccc23)cc1OC (stereo not drawn) ; system: P70S6K (T412E mutant, Millipore) (Homo sapiens, UniProt P23443, T412E)
Resp: < 100 nM

----------
- target: P70S6K (T412E mutant, Millipore) (Homo sapiens, UniProt P23443, T412E)
- Construct: purchased Millipore
- procedure-details: p70S6K enzyme assay
- Format: biochemical
- assay-setup: class symbol; 3 nM P70S6K, 24 μM ATP; read-out: IC50 (p70S6K)
pIC50: −log10 of the molar value.
quantity-kind: pIC50

Examples from the recorded data:
| compound | target | endpoint-value |
| --- | --- | --- |
| CC(NCCNC(=O)c1sccc1Nc1ccnc2[nH]ccc12)c1ccccc1 (stereo not drawn) | P70S6K (T412E mutant, Millipore) (Homo sapiens, UniProt P23443, T412E) | > 7.00 |
| O=C(NCCc1ccccc1)c1sccc1Nc1ncnc2[nH]ccc12 | P70S6K (T412E mutant, Millipore) (Homo sapiens, UniProt P23443, T412E) | > 7.00 |
| O=C(NC(CO)C(=O)NCc1ccc(Cl)c(C(F)(F)F)c1)c1sccc1Nc1ccnc2[nH]ccc12 (stereo not drawn) | P70S6K (T412E mutant, Millipore) (Homo sapiens, UniProt P23443, T412E) | 6.00 to 7.00 |
| O=C(NCCSCc1ccccc1)c1sccc1Nc1ccnc2[nH]ccc12 | P70S6K (T412E mutant, Millipore) (Homo sapiens, UniProt P23443, T412E) | 6.00 to 7.00 |
| O=C(NCCNCc1ccccc1OC(F)(F)F)c1sccc1Nc1ccnc2[nH]ccc12 | P70S6K (T412E mutant, Millipore) (Homo sapiens, UniProt P23443, T412E) | > 7.00 |
| O=C(N[C@H](CO)Cc1ccccc1)c1sccc1Nc1ccnc2[nH]ccc12 | P70S6K (T412E mutant, Millipore) (Homo sapiens, UniProt P23443, T412E) | > 7.00 |
| COc1cc(CNC(=O)c2sccc2Nc2ccnc3[nH]ccc23)cc(OC)c1 | P70S6K (T412E mutant, Millipore) (Homo sapiens, UniProt P23443, T412E) | 6.00 to 7.00 |
| O=C(NCCc1ccc(Br)cc1)c1sccc1Nc1ncnc2[nH]ccc12 | P70S6K (T412E mutant, Millipore) (Homo sapiens, UniProt P23443, T412E) | > 7.00 |

Req: For the compound O=C(NC1CCCNC1)c1sccc1Nc1ncnc2[nH]ccc12 (stereo not drawn) , give its reported pIC50.
Resp: > 7.00

Req: # return recorded pIC50 for entry "O=C(NCCc1ccccn1)c1sccc1Nc1ccnc2[nH]ccc12"
Resp: 6.00 to 7.00

Req: Provide only the value of recorded pIC50 for "O=C(NCCc1ccc(F)cc1)c1sccc1Nc1ncnc2[nH]ccc12"
Resp: > 7.00

Req: Identify measured pIC50 associated with "Nc1cccc(CNC(=O)c2sccc2Nc2ccnc3[nH]ccc23)c1"
Resp: > 7.00

Req: Please report the measured pIC50 for "O=C(N[C@H](CN1C(=O)c2ccccc2C1=O)c1ccccc1)c1sccc1Nc1ccnc2[nH]ccc12"
Resp: > 7.00

Req: Provide only the value of recorded pIC50 for "O=C(NCCN(Cc1ccoc1)Cc1ccoc1)c1sccc1Nc1ccnc2[nH]ccc12"
Resp: > 7.00

Req: Look up and report measured pIC50 for this entry: "O=C(NCCc1cccc(F)c1)c1sccc1Nc1ncnc2[nH]ccc12"
Resp: > 7.00

Req: Read off the recorded pIC50 for CC(C)(C)OC(=O)N1CCC(NC(=O)c2ccsc2Nc2ccnc3[nH]ccc23)C1 (stereo not drawn)
Resp: 6.00 to 7.00

Req: Tell me its pIC50 given NCC(NC(=O)c1sccc1Nc1ccnc2[nH]ccc12)c1cccc(F)c1 (stereo not drawn) as the entry.
Resp: > 7.00

Req: Input "COc1ccc(CNCCNC(=O)c2sccc2Nc2ccnc3[nH]ccc23)cc1Cl" , output reported pIC50.
Resp: > 7.00
